# Species: Mus musculus
# Experiment Description: Effective concentration required for inhibition of interleukin-6 in mouse thioglycolate-elicited peritoneal exudate cell line using 85% radiolabeled Dexamethasone
# Type: functional
Experimental Endpoint: pEC50
Friendly reminder that pEC50 comes from taking -log10 of the concentration in mol/L.

Q: Read off the recorded pEC50 for C[C@]12Cc3cnn(-c4ccc(F)cc4)c3C=C1CCC21O[C@H](c2ccccc2)[C@@H](c2ccccc2)O1
Result: 7.22

* * *

# System: A549
# Experiment Description: Effective concentration for inhibition of interleukin-6 in human A549 lung carcinoma cell line using 67% radiolabeled Dexamethasone
# Type: functional, cell-based
The compounds listed here are annotated with their EC50.
State just the number; it will be interpreted in nM.

Q: Would you please give the reported EC50 of C/C=C/[C@H]1OC2(CCCC3=Cc4c(cnn4-c4ccc(F)cc4)C[C@@]32C)O[C@@H]1/C=C/C with A549?
Result: 7.8

Now for the compound whose EC50 we want.
Q: Would you please give the reported EC50 of C[C@]12Cc3cnn(-c4ccc(F)cc4)c3C=C1CCC21O[C@H](c2ccccc2)[C@@H](c2ccccc2)O1 with A549?
Result: 10
